tgt: Mu-type opioid receptor (Homo sapiens) + Delta-type opioid receptor (Homo sapiens) (UniProt P35372+P41143)
Sequence (P35372 whole entry, looked up): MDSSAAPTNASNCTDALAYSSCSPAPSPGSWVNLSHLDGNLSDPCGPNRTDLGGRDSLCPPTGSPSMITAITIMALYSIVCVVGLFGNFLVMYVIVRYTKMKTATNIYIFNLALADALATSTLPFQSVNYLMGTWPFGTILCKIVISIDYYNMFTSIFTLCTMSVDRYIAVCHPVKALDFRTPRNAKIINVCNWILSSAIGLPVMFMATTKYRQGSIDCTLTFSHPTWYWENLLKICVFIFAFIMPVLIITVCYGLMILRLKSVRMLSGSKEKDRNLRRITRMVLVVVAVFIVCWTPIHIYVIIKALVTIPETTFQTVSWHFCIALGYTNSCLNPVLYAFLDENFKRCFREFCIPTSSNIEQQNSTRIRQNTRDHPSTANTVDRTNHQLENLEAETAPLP
Sequence (P41143 whole entry, looked up): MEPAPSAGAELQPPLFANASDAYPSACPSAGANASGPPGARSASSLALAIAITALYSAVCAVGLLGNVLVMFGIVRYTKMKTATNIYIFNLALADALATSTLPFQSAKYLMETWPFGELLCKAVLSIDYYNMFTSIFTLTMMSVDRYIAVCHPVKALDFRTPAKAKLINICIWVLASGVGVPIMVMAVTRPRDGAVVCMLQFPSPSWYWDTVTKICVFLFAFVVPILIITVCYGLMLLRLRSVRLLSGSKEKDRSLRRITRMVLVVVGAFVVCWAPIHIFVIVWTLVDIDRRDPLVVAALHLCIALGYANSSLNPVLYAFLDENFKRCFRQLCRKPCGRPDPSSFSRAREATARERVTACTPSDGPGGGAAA
run_description: OPRM1-OPRD1 heterodimer agonist potency – cell-based, luminescence, dose response (AID 588407);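 further: potency of agonists raising the heterodimer signal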
experimental_setup: cells, MOR-DOR heterodimerization
The source made the active and inactive calls. How the calls were made is not given here.
Outcome codes: active, inactive

molecule | category_label
CCN(CC)Cc1cc(Nc2c3ccccc3nc3c4ccccc4n(C)c23)cc(CN(CC)CC)c1O | active
Cc1cc(/C=C2\SC(=S)N(C)C2=O)c(C)n1-c1ccc(O)cc1 | inactive
COc1cc(C(=O)OC(C)C(=O)NCC2CCCCC2)cc(NC(=O)c2ccco2)c1OC (stereo not given) | inactive
COC(=O)C1=C(C)N(CCCC(=O)O)C(=O)NC1c1ccccc1OS(=O)(=O)c1ccc([N+](=O)[O-])cc1 (stereo not given) | active
O=C(OC1C2CCC1C1CN(CCc3ccccc3)CC12)c1ccccc1 (stereo not given) | inactive
CSCCCNC(=O)c1ccc(OC2CCN(CCc3ccccc3)CC2)cc1 | inactive
CN(C)S(=O)(=O)c1ccc(-c2csc(N/N=C/c3ccc(O)cc3)n2)cc1 | active
Cc1ccc(Cn2c(=N)n(CC(O)COc3ccccc3)c3ccccc32)cc1 (stereo not given) | inactive
CCN1CCN(S(=O)(=O)c2ccc(Cl)c(C(=O)N(CCc3ccccc3)Cc3ccccc3)c2)CC1 | inactive
CN(C)C(CNC(=O)CSC(=S)N1CCCC1)c1ccccc1 (stereo not given) | active

// data source = PubChem BioAssay AID588407
